Give measured self-cleavage for each item. Keep answers brief.
B1: HDV Ribozyme (parent)
chain: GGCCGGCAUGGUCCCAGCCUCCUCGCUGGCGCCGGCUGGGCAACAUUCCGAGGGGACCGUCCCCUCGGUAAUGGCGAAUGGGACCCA

Variants of: B1
protocol-text: self-cleavage, relative activity (ratio to wild type); higher = more cleavage; co-transcriptional
Give bare numbers.

sequence-content	endpoint-label	endpoint-value
GGCCGGCAUGGUCCCAGCCUCCUCGCUGGUGCCGGCUGGGCAACAUUCCGAGGGGACCGUCCCCUCGGUAAUGGCGAAUGGGACACA [C30U C85A]	self-cleavage	0.441
GGCCGGCAUGGUCCCAGCCUCCUCGCUGGCGCCGGCUGGGCACCAUGCCGAGGGGACCGUCCCCUCGGUAAUGGCGAAUGGGACCCA [A43C U47G]	self-cleavage	0.302
GGCCGGCAUGUUCCCAGCCUCCUCGCUGGCGCCGGCUGGGCGACAUUCCGAGGGGACCGUCCCCUCGGUAAUGGCGAAUGGGACCCA [G11U A42G]	self-cleavage	0.0386
GGCCGGCAUGGUCCCAGCCUCCUCGCUGGCGCCGGCUGGGCAUCAUUCCGAGGGGACCGUCCCCUCUGUAAUGGCGAAUGGGACCCA [A43U G67U]	self-cleavage	0.499
GGCCGGCAUGGUCCCAGCCUCCUCGCUGGCGCCGGCUGGGCAAAAUUCCGAGGGGACCGUCCCCUCGGUAAUGGCGGAUGGGACCCA [C44A A77G]	self-cleavage	0.396

Fill in self-cleavage for each of the 8 variants listed.
1. GGCCGGCAUGGUCCCAGCCUCCUCGCUGGCGCCGGCUGGGUAACAUUCCGAGGGGACCGUCCCCUCGGUAAUGGCGAAUGAGACCCA [C41U G81A]
2. GGCCGGCAUGGUCCCAGCGUCCUCGCUGGCGCCGGCUGGGCCACAUUCCGAGGGGACCGUCCCCUCGGUAAUGGCGAAUGGGACCCA [C19G A42C]
3. GGCCGGCAUGGUCCCAGCCUCCUCGCUGGCGCCGGCUGGGCAACAUUCGGAGGGGACCGUUCCCUCGGUAAUGGCGAAUGGGACCCA [C49G C61U]
4. GUCCGGCAUGGUCCCAGCCUCCUCGCUGGCGCCGGCUGGGCAACAUUCCGAGGGGACCGUACCCUCGGUAAUGGCGAAUGGGACCCA [G2U C61A]
5. GGCCGGCAUGGUCCCAGCCUCCUCGCUGGCGCCGGCUGGGCAACAUUCCGAGGGGAGCGUCCCCUCGGUAAUGGCGAAUGGUACCCA [C57G G82U]
6. GGCCGGCAUGGUCCCGGCCUCCUCGCUCGCGCCGGCUGGGCAACAUUCCGAGGGGACCGUCCCCUCGGUAAUGGCGAAUGGGACCCA [A16G G28C]
7. GGCCGGCAUGGUCCCAGCCUCCUCGCUGGCGCCGGCUGGGCAAAAUUCCGAGGGAACCGUCCCCUCGGUAAUGGCGAAUGGGACCCA [C44A G55A]
8. GGCCGGCAUGGUCCCAGCCUCCUCGCUGGCGCCGGCUGGGCAACAUUCCGAGGGGACCCUCCCCUCGGUUAUGGCGAAUGGGACCCA [G59C A70U]

[reply]
1. 0.237
2. 0.0978
3. 0.432
4. 0.0913
5. 0.317
6. 0.115
7. 0.554
8. 1.03

Batch lookup, self-cleavage per entry.
1. GGCCGGCAUGGUCCCAGCCUCCUCGCUGGCGCCGUCUGGGCAACAUUCCGAGGGUACCGUCCCCUCGGUAAUGGCGAAUGGGACCCA [G35U G55U]
2. GGCCGGCAAGGUCCCAGCCUCCUCGCUGGCGCCGGCUGGGCAACAUUCCGAGGGGACCGUUCCCUCGGUAAUGGCGAAUGGGACCCA [U9A C61U]
3. GGCCGGCAUGGUCACAGCCUCCUCGCUGGCGCCGGCUGGGCAACAUUCCGAGGGGACCGUCACCUCGGUAAUGGCGAAUGGGACCCA [C14A C62A]

[reply]
[0.508, 0.986, 1.06]

Return reported self-cleavage values for all items listed beneath this line.
1. GGCCGGCAUGGUCCCAGCCUCCUCGCUGGCGCCGGCUGGGCAACAUUCCGAGGGGAACGGCCCCUCGGUAAUGGCGAAUGGGACCCA [C57A U60G]
2. GGCCGGCUUGGUCCCAGCCUCCUCGCUGGCGCCGGCUGGGCAACCUUCCGAGGGGACCGUCCCCUCGGUAAUGGCGAAUGGGACCCA [A8U A45C]

[reply]
0.831
0.166

Look at each variant and report its self-cleavage.
1. GGCCGGCAUGGUCCCAGCCCCCUCGCUGGCGCCGGCUGGGCAACAUUCCGAGGGGACCGUCCCCUCGGUAAUGGCCAAUGGGACCCA [U20C G76C]
2. UGCCGGCAUGGUCCCAGCCUCCUCGCUGGCGCCGGCUGGGCAACAUUCCGAGUGGACCGUCCCCUCGGUAAUGGCGAAUGGGACCCA [G1U G53U]
3. GGCCGGCAUGGUCCCAGCCUCCUCGCUGGCGCCGGCUGGGCAACAUUCCGAGGGAUCCGUCCCCUCGGUAAUGGCGAAUGGGACCCA [G55A A56U]
4. GGCCGGCAUGGUCCCAGCCUCCUCGCUGGUGCCGGCUGGGCAACAUUCCGAGGGGAGCGUCCCCUCGGUAAUGGCGAAUGGGACCCA [C30U C57G]
5. GGGCGGCAUGGUCCCAGCCUCCUCGCUGGCGCCGGCUGGGCAAGAUUCCGAGGGGACCGUCCCCUCGGUAAUGGCGAAUGGGACCCA [C3G C44G]
6. GGCCGGCAUGGUCCCAGCCUCCUCGCUGGCGUCGGCUGGGCAACAUUCCGAGGGGACCGUCCCCUCGGUAAUCGCGAAUGGGACCCA [C32U G73C]
7. GGCCGGCAUGGUCCUAGCCUCCUCGCUGGCGCCGGCUGGGCAACAUUCCGAGGGGACCGUCCCCUCGGUAAUGGCGAAUGGGACCUA [C15U C86U]

[reply]
1. 0.0773
2. 0.355
3. 0.926
4. 0.683
5. 0.0707
6. 0.261
7. 0.895
